- procedure.details: Nuclear factor erythroid 2-related factor 2/antioxidant responsive element (Nrf2/ARE) small molecule agonists: qHTS cell viability counter screen in human keratinocytes (AID 1919968); note: nearly all actives have a fitted effect of over 55% in size
- condition.summary: KeratinoSens HaCaT ARE cells viability, CellTiter-Fluor, 24 h; series mostly up to 92.4 µM
Records with an inconclusive call do not appear. Activity calls are given as the source filed them. Calls come from the whole dose curve; as a rule, active = well fitted cell-killing curve with a large enough effect in the repeat runs; inconclusive = weak or mixed curves, or effect the other way; inactive = flat fitted curve, though single readings scatter.
Log the outcome using a class from active, inactive

Illustrative cases are given below, each with its answer.
>>> print(df.to_string())
                   substance_smiles  class_assignment
0                         O=S1OCCO1          inactive
1                        C=COCC(C)C          inactive
2  COc1ccc(-c2coc3cc(O)ccc3c2=O)cc1          inactive
3           CCCC(=O)c1cc(O)c(O)cc1O            active

Now turn to the next compound.
[Q] # outcome recorded in this test, key = O=c1[nH]c(=O)n([C@H]2C[C@H](O)[C@@H](CO)O2)cc1I
[A] inactive
